- tgt: HLA-A*02:01 (Homo sapiens, UniProt P04439, D140Y/D185E/D98H/E176V/E277Q/G131W/G231S/I119V/I121R/I166T/I218V/L300P/L318F/N151K/N90K/P208A/P217A/Q86G/Q94H/R138H/R169H/T345S)
- Construct: made in house
- procedure_summary: MHC binding assay: UV-ligand exchange with β2m ELISA (peptide exchange yield)
- measurement_setup: binding to HLA-A*02:01 evaluated by peptide exchange yield (UV-ligand exchange, β2m ELISA)
endpoint: Peptide exchange

- 92 (RLFEEVLGV; listed as Homo sapiens) [compound 92]: ++++ (≧75% = ++++)
- 284 (KLMDPGSLPPL; listed as Homo sapiens) [compound 284]: ++ (≧20% = ++)
- 217 (LLWPSSVPA; listed as Homo sapiens) [compound 217]: +++ (≧50 = +++)
- 33 (TLDRNSLYV; listed as Homo sapiens) [compound 33]: ++ (≧20% = ++)
- 115 (ILHGEVNKV; listed as Homo sapiens) [compound 115]: ++ (≧20% = ++)
- 234 (VLLNEILEQV; listed as Homo sapiens) [compound 234]: ++++ (≧75% = ++++)

Value lookup for Peptide exchange; key = 3 (RVIDDSLVVGV; listed as Homo sapiens) [compound 3] +++ (≧50 = +++)

Value lookup for Peptide exchange; key = 62 (SLVENIHVL; listed as Homo sapiens) [compound 62] +++ (≧50 = +++)

Value lookup for Peptide exchange; key = 166 (LLGDSSFFL; listed as Homo sapiens) [compound 166] +++ (≧50 = +++)
